ASSAY_DETAILS: qHTS assay to identify aromatase inhibitors - cell viability counter screen (AID 743084);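 also: cells stimulated with testosterone during compound exposure; nearly all actives have a fitted effect of over 55% in size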
CONDITION_PARAMETERS: MCF-7 aro ERE viability, CellTiter-Fluor, 24 h; series mostly up to 70.3 µM
Results filed as inconclusive are left out. Active and inactive are the calls of the source. Calls follow the shape of the dose curve; as a rule, active = well fitted cell-killing curve with a large enough effect in the repeat runs; inconclusive = weak or mixed curves, or effect the other way; inactive = no such curve, though single readings can be large or run the other way.
QUANTITY_MEASURED: outcome

molecule=CC1(C)CC(=O)CC(C)(C)N1 quantity_measured=outcome obs_value=inactive
molecule=Nc1ncnc2c1ncn2[C@@H]1O[C@H](CO)[C@@H](O)[C@H]1O quantity_measured=outcome obs_value=inactive
molecule="OCC(O)c1ccccc1 (configuration not stated)" quantity_measured=outcome obs_value=inactive
molecule=O=C(N[C@@H](Cc1ccccc1)[C@@H](O)C(=O)N1C[C@@H](O)[C@@H](O)C1)c1cc2cc(Cl)ccc2[nH]1 quantity_measured=outcome obs_value=inactive
molecule=CCOC(=O)CC(O)(CC(=O)OCC)C(=O)OCC quantity_measured=outcome obs_value=inactive
molecule=S=c1[nH][nH]c(=S)s1 quantity_measured=outcome obs_value=inactive
molecule="N#CCCCC(C#N)CCC#N (configuration not stated)" quantity_measured=outcome obs_value=inactive
molecule=Nc1ccc(F)cc1F quantity_measured=outcome obs_value=inactive

Read the entry Nc1nc(Cl)nc2c1ncn2[C@H]1C[C@H](O)[C@@H](CO)O1 and write its reported outcome.
inactive

Supply reported outcome belonging to this molecule: CCCCOC(=O)C(C)Oc1ccc(Oc2ccc(C(F)(F)F)cn2)cc1 (configuration not stated)
inactive

Query outcome for CC(C)(C(=O)O)c1ccc(C(O)CCCN2CCC(C(O)(c3ccccc3)c3ccccc3)CC2)cc1 (configuration not stated)
inactive

For the molecule N#C[C@@H]1CC(F)(F)CN1C(=O)CNC1CC2CCC(C1)N2c1ncccn1 (some centres not stated) , give its measured outcome value.
inactive

----------
ASSAY_DETAILS: qHTS assay for small molecule agonists of the p53 signaling pathway - cell viability (AID 651633); also: nearly all actives have a fitted effect of over 30% in size
CONDITION_PARAMETERS: p53RE-bla HCT-116 viability, ATP luminescence, 16 h; series mostly up to 83.3 µM
Records with an inconclusive call do not appear. Calls of active or inactive are those of the source. Calls follow the shape of the full dose curve.
Pick one and only one: active, inactive

compound=COc1ccc(/C=C/c2cc(OC)cc(=O)o2)cc1 group_label=inactive
compound="CCCCCCCCC(=O)OCC(C)OC(=O)CCCCCCCC (stereo not drawn)" group_label=inactive
compound=CC(C)(O)C(=O)O group_label=inactive

Answer briefly: the call reported for CC(C)CCCCCCCOC(=O)c1ccc(C(=O)OCCCCCCCC(C)C)c(C(=O)OCCCCCCCC(C)C)c1 in this assay.
inactive

What classification did O=C1C=CCCC1 end up with in this test?
inactive

Write down the call the test reported for this compound. Item: O=C(Cl)c1ccc(F)c(Cl)c1
inactive

For C[C@@H](O)[C@H]1C(=O)N2C(C(=O)O)=C(S[C@@H]3CN[C@H](CNS(N)(=O)=O)C3)[C@H](C)[C@H]12 , what call appears in the results of this test?
inactive

Assay result, entry O=C(O)c1ccncc1 — outcome?
inactive

Fill in: this test's call for CC(=O)Nc1ccccc1O is ___
inactive

Any idea what this test logged for Cc1c(Cl)cccc1Nc1ccccc1C(=O)O ?
active

What did the test return for CC[C@H](NC(C)C)[C@H](O)c1ccc(O)c2[nH]c(=O)ccc12 ?
inactive

I would be grateful if you could indicate the recorded call for CCCCOc1ccc(N)cc1 .
inactive

Assay result, entry CC(C)(Cc1c[nH]c2ccccc12)NCC(O)COc1ccccc1C#N (stereo not drawn) — outcome?
inactive

Which outcome did this test record for the compound O=C(O)c1ccccc1-n1cc(C(=O)O)c(=O)c2cc(Nc3c(F)cc(F)cc3Cl)c(Cl)cc21 ?
inactive

// param item: CC(C)=CCC/C(C)=C/C=N/O ; yields the recorded call
inactive

# lookup: test call for CCOc1ccccc1O
inactive

Call for entry O=C(O)c1ccc2cc(O)ccc2c1 :
inactive

Which outcome was entered for the compound CCc1ccc(C(=O)C(C)CN2CCCCC2)cc1 (stereo not drawn) in this test?
inactive

Answer briefly: the call reported for Oc1ccc(Oc2ccccc2)cc1 in this assay.
inactive

Could you kindly confirm the outcome this assay logged for CC(C)Cc1nccs1 ?
inactive

// param item: CCOC(=O)CC(O)(CC(=O)OCC)C(=O)OCC ; yields the recorded call
inactive

Write down the call the test reported for this compound. Item: CC1(C)C(=O)NC(=O)N1CO
inactive

Recorded test outcome, item O=C(N[C@@H](Cc1ccccc1)[C@@H](O)C(=O)N1C[C@@H](O)[C@@H](O)C1)c1cc2cc(Cl)ccc2[nH]1
inactive

Could you check what this test reported for CC(Cc1ccccc1)(NC(=O)CN)c1ccccc1 (stereo not drawn) ?
inactive

For CC/C=C/CCO , what call appears in the results of this test?
inactive

Field: outcome | Entry: O=c1[nH][nH]c2ccccc12
inactive

Record lookup: outcome of this test for O=[N+]([O-])c1ccccc1CCO ?
inactive

Give the logged outcome of this assay for the following compound: Cc1cccc(C)c1NC(=O)CN1CCCC1
inactive
